The following variants are listed with their measured protein stability index values.
B1: PRAME (parent)
chain: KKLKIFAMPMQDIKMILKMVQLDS

variants of: B1; experiment: protein stability index of a GFP-peptide fusion (GPS, HEK-293T) (PSI 1-6); higher = more stable; details: c terminus: a fixed tail appended;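 further: lentivirally expressed fusions sorted by FACS into six bins by GFP to DsRed ratio, PSI derived from sequencing read proportions per bin multiplied by bin number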
Measured Endpoint: protein stability index

>>> value("I16R")
1.75
>>> value("V20K")
4.07
>>> value("K2A")
2.69
>>> value("I13E")
1.65
>>> value("L3C")
2.1
>>> value("V20I")
4.22
>>> value("M19T")
3.38
>>> value("Q11D")
2.47
>>> value("K18D")
2.22
>>> value("M19F")
2.46
>>> value("K1D")
3.38
>>> value("Q11A")
3.71
>>> value("Q11R")
4.36
>>> value("M10C")
2.5
>>> value("L22D")
4.71
>>> value("L22A")
1.13
>>> value("L17C")
2.73
>>> value("Q11K")
3.32
>>> value("K14P")
3.66
>>> value("K4E")
2.02
>>> value("K4G")
4.41
>>> value("I5G")
4.35
>>> value("I5T")
2.5
>>> value("K4F")
2.44
>>> value("M15E")
2.36
>>> value("A7D")
3.87
>>> value("D23P")
3.05
>>> value("K1C")
2.92
>>> value("Q21N")
2.82
>>> value("I5E")
3.63
>>> value("K2S")
2.94
>>> value("V20H")
3.51
>>> value("P9V")
2.94
>>> value("M15F")
2.51
>>> value("I5K")
4.37
>>> value("I5N")
4.02
>>> value("K18G")
3.49
>>> value("I13N")
1.54
>>> value("I16Q")
1.6
>>> value("K2D")
3.31
>>> value("M8H")
3.92
>>> value("D23E")
3.61
>>> value("K14V")
2.44
>>> value("K2G")
2.86
>>> value("L3E")
1.06
>>> value("P9Y")
1.43
